This collection of values is drawn from the supplement of paper PMC12645437.

Target: T1, CRBN, Q96SW2;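 note: pooled lentiviral library of zinc finger degron-EGFP fusions in mCherry-positive Jurkat cells, FACS-sorted after compound exposure, with degron abundance counted by next-generation sequencing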
T1 chain: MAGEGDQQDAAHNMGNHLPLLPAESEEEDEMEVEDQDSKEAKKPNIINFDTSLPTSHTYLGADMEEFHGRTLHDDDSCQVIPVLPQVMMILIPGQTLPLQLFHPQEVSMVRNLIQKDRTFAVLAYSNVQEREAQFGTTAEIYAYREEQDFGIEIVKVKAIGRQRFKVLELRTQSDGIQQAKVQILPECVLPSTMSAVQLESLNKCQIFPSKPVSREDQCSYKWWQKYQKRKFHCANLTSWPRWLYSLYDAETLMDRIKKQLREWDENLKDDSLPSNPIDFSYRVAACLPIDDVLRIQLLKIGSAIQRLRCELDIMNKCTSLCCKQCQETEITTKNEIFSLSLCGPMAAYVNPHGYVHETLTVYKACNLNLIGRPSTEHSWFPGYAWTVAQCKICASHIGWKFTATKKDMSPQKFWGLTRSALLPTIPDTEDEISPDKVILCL
Assay Protocol: log2 fold change of degron read counts, EGFP-low vs EGFP+ sorted cells (limma voom), compound-induced degradation; higher = more compound-induced degradation of the degron-EGFP fusion; degrons are variants of IKZF1/3 zinc finger 2; compound dose not given here
Condition Notes: Jurkat; 18 h; compound: compound 22 (5-morpholino-thalidomide)
The full ranking holds about 8,300 sequences; the median of “log2 fold change of degron read counts, EGFP-low vs EGFP+ sorted cells (limma voom), compound-induced degradation” is about -1.1, and the highest 2% start at about 3.2. The sample as a whole holds a higher share of the highest values than the screen did.

>  <Input Sequence>
FQCEVCGADFTQKGNLLRHIKL [46F_47Q_49E_50V_52G_53A_54D_55F_67L_, Q9UKT9]

>  <log2 fold change of degron read counts>
-0.0138

$$$$
>  <Input Sequence>
FACNVCGASFTQKGNLLRHIKL [46F_47A_49N_50V_52G_53A_54S_55F_67L_, Q9UKT9]

>  <log2 fold change of degron read counts>
0.642

$$$$
>  <Input Sequence>
FCCNVCGASFTQKGNLLRHIKL [46F_47C_49N_50V_52G_53A_54S_55F_67L_, Q9UKT9]

>  <log2 fold change of degron read counts>
0.454

$$$$
>  <Input Sequence>
FYCNICGARFTQKGNLLRHIKL [46F_47Y_49N_50I_52G_53A_54R_55F_67L_, Q9UKT9]

>  <log2 fold change of degron read counts>
2.47

$$$$
>  <Input Sequence>
FWCNICGARFTQKGNLLRHIKL [46F_47W_49N_50I_52G_53A_54R_55F_67L_, Q9UKT9]

>  <log2 fold change of degron read counts>
3.34

$$$$
>  <Input Sequence>
FHCEVCGASFTQKGNLLRHIKL [46F_47H_49E_50V_52G_53A_54S_55F_67L_, Q9UKT9]

>  <log2 fold change of degron read counts>
2.64

$$$$
>  <Input Sequence>
FCCDICGAMFTQKGNLLRHIKL [46F_47C_49D_50I_52G_53A_54M_55F_67L_, Q9UKT9]

>  <log2 fold change of degron read counts>
0.00358

$$$$
>  <Input Sequence>
FACEVCGASFTQKGNLLRHIKL [46F_47A_49E_50V_52G_53A_54S_55F_67L_, Q9UKT9]

>  <log2 fold change of degron read counts>
2.73

$$$$
>  <Input Sequence>
FLCNICGARFTQKGNLLRHIKL [46F_47L_49N_50I_52G_53A_54R_55F_67L_, Q9UKT9]

>  <log2 fold change of degron read counts>
-1.89

$$$$
>  <Input Sequence>
FNCNICGARFTQKGNLLRHIKL [46F_47N_49N_50I_52G_53A_54R_55F_67L_, Q9UKT9]

>  <log2 fold change of degron read counts>
0.255

$$$$
>  <Input Sequence>
FRCEVCGASFTQKGNLLRHIKL [46F_47R_49E_50V_52G_53A_54S_55F_67L_, Q9UKT9]

>  <log2 fold change of degron read counts>
1.56

$$$$
>  <Input Sequence>
FTCNICGARFTQKGNLLRHIKL [46F_47T_49N_50I_52G_53A_54R_55F_67L_, Q9UKT9]

>  <log2 fold change of degron read counts>
1.57

$$$$
>  <Input Sequence>
FVCEVCGASFTQKGNLLRHIKL [46F_47V_49E_50V_52G_53A_54S_55F_67L_, Q9UKT9]

>  <log2 fold change of degron read counts>
2.91

$$$$
>  <Input Sequence>
FYCEVCGASFTQKGNLLRHIKL [46F_47Y_49E_50V_52G_53A_54S_55F_67L_, Q9UKT9]

>  <log2 fold change of degron read counts>
3.86

$$$$
>  <Input Sequence>
FMCEVCGASFTQKGNLLRHIKL [46F_47M_49E_50V_52G_53A_54S_55F_67L_, Q9UKT9]

>  <log2 fold change of degron read counts>
1.79

$$$$
